Let's look at some compounds and their measured Dmax.
target: p300 (Homo sapiens, UniProt Q09472); construct: host or cells: A549 P300 HiBit cells; assay: P300 degradation, HiBit technology in A549 P300 HiBit cells (2 h); format: cell-based; conditions: A549, A549 P300 HiBit cells, 2 hrs post treatment
Sequence (Q09472 whole entry): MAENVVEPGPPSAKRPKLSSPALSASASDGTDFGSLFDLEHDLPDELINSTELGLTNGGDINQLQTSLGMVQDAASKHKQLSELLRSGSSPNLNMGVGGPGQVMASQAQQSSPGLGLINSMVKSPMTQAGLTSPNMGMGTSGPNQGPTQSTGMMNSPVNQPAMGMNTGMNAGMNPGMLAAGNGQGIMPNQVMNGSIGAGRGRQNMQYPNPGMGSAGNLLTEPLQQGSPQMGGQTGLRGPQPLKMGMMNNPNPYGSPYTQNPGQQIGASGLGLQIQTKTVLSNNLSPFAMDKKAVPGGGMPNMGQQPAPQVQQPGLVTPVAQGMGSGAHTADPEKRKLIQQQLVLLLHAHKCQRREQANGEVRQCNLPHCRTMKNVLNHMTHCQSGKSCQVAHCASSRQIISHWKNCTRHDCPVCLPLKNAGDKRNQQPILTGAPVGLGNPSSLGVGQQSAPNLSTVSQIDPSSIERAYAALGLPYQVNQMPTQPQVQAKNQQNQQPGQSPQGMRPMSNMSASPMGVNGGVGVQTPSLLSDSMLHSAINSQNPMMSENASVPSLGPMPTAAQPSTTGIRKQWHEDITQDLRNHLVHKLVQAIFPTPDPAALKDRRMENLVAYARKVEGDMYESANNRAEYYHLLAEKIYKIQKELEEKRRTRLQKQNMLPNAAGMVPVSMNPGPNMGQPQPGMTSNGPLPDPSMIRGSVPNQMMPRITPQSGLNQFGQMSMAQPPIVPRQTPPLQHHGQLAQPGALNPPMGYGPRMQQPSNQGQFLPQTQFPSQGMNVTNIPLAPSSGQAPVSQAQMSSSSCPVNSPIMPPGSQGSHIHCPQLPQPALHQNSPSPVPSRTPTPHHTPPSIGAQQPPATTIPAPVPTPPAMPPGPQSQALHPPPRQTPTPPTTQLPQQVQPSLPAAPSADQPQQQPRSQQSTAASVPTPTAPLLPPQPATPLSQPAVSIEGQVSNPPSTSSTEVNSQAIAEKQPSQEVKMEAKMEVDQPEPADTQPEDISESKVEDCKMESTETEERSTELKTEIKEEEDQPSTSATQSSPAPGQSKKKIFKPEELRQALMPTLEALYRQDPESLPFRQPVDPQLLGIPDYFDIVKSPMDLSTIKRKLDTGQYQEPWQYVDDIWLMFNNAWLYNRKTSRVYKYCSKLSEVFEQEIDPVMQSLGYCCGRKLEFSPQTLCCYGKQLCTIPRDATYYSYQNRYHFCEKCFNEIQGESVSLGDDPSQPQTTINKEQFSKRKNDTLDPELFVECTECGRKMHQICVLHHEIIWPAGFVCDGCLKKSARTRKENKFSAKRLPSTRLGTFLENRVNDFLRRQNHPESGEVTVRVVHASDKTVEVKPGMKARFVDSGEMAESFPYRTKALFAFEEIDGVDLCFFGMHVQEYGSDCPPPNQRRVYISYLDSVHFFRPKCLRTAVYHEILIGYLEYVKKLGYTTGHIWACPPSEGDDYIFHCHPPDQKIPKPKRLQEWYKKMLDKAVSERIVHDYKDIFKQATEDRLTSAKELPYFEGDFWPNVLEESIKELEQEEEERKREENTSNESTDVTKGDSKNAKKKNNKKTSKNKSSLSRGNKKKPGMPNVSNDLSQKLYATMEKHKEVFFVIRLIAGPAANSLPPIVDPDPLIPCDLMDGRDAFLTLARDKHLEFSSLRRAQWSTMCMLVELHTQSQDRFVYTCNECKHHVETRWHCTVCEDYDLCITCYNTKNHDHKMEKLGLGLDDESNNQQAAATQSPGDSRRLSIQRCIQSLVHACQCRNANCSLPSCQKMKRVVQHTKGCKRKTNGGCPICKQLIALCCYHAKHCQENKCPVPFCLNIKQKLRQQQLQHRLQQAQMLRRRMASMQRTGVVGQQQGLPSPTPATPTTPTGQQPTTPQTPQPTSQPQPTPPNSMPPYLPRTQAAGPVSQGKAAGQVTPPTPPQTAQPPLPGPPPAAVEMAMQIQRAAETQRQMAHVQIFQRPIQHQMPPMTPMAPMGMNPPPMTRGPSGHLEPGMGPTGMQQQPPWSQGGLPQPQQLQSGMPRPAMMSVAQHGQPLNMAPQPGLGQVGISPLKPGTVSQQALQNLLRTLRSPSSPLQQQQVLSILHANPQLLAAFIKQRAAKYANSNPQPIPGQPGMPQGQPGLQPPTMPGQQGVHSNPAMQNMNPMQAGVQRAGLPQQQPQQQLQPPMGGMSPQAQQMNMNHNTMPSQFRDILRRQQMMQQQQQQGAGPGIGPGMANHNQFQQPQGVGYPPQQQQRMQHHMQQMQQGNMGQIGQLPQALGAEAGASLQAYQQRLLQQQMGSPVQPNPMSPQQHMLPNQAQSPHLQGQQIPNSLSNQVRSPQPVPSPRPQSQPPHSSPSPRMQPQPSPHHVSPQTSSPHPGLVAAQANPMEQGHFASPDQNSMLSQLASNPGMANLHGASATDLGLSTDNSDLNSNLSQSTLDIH

Compound	Measured Parameter	Recorded Measurement
CN(c1cnc(-c2ccc(C(=O)NCC#Cc3cc4c(C5CCC(=O)NC5=O)cccc4o3)nc2)nc1)c1cc(C2CCOCC2)c2c(c1)n(C)c(=O)n2C (stereo not drawn)	Dmax	> 80%
CC(C)c1cc(-c2cccc3cc(-c4ccc(C(=O)NCC#Cc5cc6cccc(C7CCC(=O)NC7=O)c6o5)nc4)ncc23)cc2c1n(C)c(=O)n2C (stereo not drawn)	Dmax	> 80%

Note: attention shifts to another entry.
Asked: Could you tell me which Dmax is on file for Cc1cc(N2CCCc3nc(-c4ccc(C(=O)NCC#Cc5cc6c(C7CCC(=O)NC7=O)cccc6o5)nc4)ncc32)cc2c1n(C)c(=O)n2C (stereo not drawn) ?
Given back: > 80%
